# tested-on: T1, Human TBK1 (1–657, S172A) (human, UniProt Q9UHD2 1-657, S172A)
# T1 sequence: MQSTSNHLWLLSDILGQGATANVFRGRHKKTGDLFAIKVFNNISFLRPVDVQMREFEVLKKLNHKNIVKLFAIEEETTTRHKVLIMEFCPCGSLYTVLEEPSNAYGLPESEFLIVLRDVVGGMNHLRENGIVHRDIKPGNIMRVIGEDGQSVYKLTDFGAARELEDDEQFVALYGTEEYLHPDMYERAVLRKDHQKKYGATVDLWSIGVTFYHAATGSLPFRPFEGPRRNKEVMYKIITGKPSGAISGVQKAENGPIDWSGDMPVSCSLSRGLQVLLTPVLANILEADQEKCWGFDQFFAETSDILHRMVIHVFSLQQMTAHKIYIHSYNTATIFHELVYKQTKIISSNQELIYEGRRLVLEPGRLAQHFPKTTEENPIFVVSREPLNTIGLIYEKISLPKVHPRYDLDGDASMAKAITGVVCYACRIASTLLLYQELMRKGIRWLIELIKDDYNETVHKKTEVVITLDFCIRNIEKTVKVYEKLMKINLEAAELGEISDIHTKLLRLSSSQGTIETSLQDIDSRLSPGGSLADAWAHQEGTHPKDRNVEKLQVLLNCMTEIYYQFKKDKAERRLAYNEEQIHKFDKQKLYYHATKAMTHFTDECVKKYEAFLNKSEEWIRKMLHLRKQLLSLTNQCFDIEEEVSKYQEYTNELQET
# method-notes: SPR
measured-metric: log10 Kd (log10 of the value in µM)
Base-10 log of Kd, unit µM.

binder | log10 Kd
p-hSTING (155–379) (domain or fragment) VAHGLAWSYYIGYLRLILPELQARIRTYNQHYNNLLRGAVSQRLYILLPLDCGVPDNLSMADPNIRFLDKLPQQTGDHAGIKDRVYSNSIYELLENGQRAGTCVLEYATPLQTLFAMSQYSQAGFSREDRLEQAKLFCRTLEDILADAPESQNNCRLIAYQEPADDSSFSLSQEVLRHLRQEEKEEVTVGSLKTSAVPSTSTMSQEPELLISGMEKPLPLRTDFS | 1.04
TWGSLKTSAVPSTSTMSQEPELLISGMEKPLPLRTDFS [p-hSTING (342–379)] | 1.23
hSTING (155–379, T376E F378M S379W), biotin-Avi-His6-SUMO fusion (domain or fragment, biotin on the Avi tag) VAHGLAWSYYIGYLRLILPELQARIRTYNQHYNNLLRGAVSQRLYILLPLDCGVPDNLSMADPNIRFLDKLPQQTGDHAGIKDRVYSNSIYELLENGQRAGTCVLEYATPLQTLFAMSQYSQAGFSREDRLEQAKLFCRTLEDILADAPESQNNCRLIAYQEPADDSSFSLSQEVLRHLRQEEKEEVTVGSLKTSAVPSTSTMSQEPELLISGMEKPLPLREDMW | 0.15
STSTMSQEPELLISGMEKPLPLRTDFS [p-hSTING (353–379)] | 1.35

Asked: Fill in the blank: the reported log10 Kd of SGMEKPLPLRTDFS [p-hSTING (366–379)] is ____.
Given back: 1.55

Source of measurements: paper PMC6596994
